- Tested on: F380Y
- testSummary: modulators of BK channel variants, profiling panel, selectivity assay, cell-based, U2OS BacMam, thallium flux, beta subunits (AID 1259406);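 also: initial slope of Thallos dye fluorescence rise after thallium is added; log ratio against the mean of 0.3% DMSO vehicle wells on the same plate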
- appliedConditions: at 30 µM
The compounds listed here are annotated with their log fold change Tl+ flux.
Give the figure by itself; no unit, no explanation.

[[record]]
compound = "Cc1ccc(S(=O)(=O)Oc2c(Cc3ccccc3)c(=O)n(C)c3ccccc23)cc1"
observedvalue = -0.047

[[record]]
compound = "O=C(NNc1c(Cl)cccc1Cl)c1csc(Cc2c(Cl)cccc2Cl)n1"
observedvalue = 0.031

[[record]]
compound = "Cc1nn(C)c(NCc2cccs2)c1[N+](=O)[O-]"
observedvalue = 0.0023

[[record]]
compound = "CC(C)(C)c1cc2nc(C(F)(F)F)cc(NN=Cc3ccccc3)n2n1"
observedvalue = 0.0101

[[record]]
compound = "COc1cc(NC(=S)Nc2cccc(C)n2)c(OC)cc1Cl"
observedvalue = 0.00134


Look up log fold change Tl+ flux for this compound: "CC(=O)Oc1ccc(OC(C)=O)c2cc3c(OC(C)=O)ccc(OC(C)=O)c3cc12" -0.0214

Lookup "CN(C)C=Nc1cc(Cl)c(-n2cccc2)cc1Oc1ccc(Cl)cc1" 0.0245

Lookup Fc1ccc(C2CCNCC2COc2ccc3c(c2)OCO3)cc1 (stereo unspecified) 0.146

Lookup "C[C@@H](c1ncncc1F)[C@](O)(Cn1cncn1)c1ccc(F)cc1F" 0.0491

Lookup "O=C(NCC1CC1)c1ccccc1NS(=O)(=O)c1cccc2nonc12" 0.0757

Lookup "N=c1c(C(N)=O)cc2c(=O)n3ccccc3nc2n1Cc1ccco1" 0.0339

###

The compounds listed here are annotated with their cell count.
- testSummary: sensitizers of A549 cells to miR-34 induction, primary screen, imaging, A549 dox-inducible miR-34, nuclei and caspase counts (AID 1347080)
- appliedConditions: A549 miR-34 inducible, Hoechst nuclei count, 48 h; measured here: total cells with miR-34 induction; stronger effect = lower value
Give the figure by itself; no unit, no explanation.

Previously resolved entries follow.
[[record]]
compound = "C[C@]12CCC(=O)C=C1CCC1C2[C@@H](O)C[C@@]2(C)C1CC[C@]2(O)C(=O)COC(=O)CCC(=O)O (stereo not given in full)"
propertymeasured = "cell count"
observedvalue = 7240

[[record]]
compound = "C=C1CC[C@H](O)C/C1=C/C=C1\\CCC[C@]2(C)C([C@H](C)/C=C/[C@H](C)C(C)C)CC[C@@H]12 (stereo not given in full)"
propertymeasured = "cell count"
observedvalue = 11200

[[record]]
compound = "CC(C)c1c(C(=O)c2ccccc2)c(-c2ccccc2)c(-c2ccc(F)cc2)n1CC[C@@H](O)C[C@@H](O)CC(=O)O"
propertymeasured = "cell count"
observedvalue = 9140

[[record]]
compound = "CC(C)(CO)C(O)C(=O)NCCC(=O)NCCSSCCNC(=O)CCNC(=O)C(O)C(C)(C)CO (stereo not given)"
propertymeasured = "cell count"
observedvalue = 8560

[[record]]
compound = "CC1=C(C(=O)O)N2C(=O)[C@@H](NC(=O)C(N)c3ccc(O)cc3)[C@H]2SC1 (stereo not given in full)"
propertymeasured = "cell count"
observedvalue = 12000


Look up cell count for this compound: "Cn1c(=O)c(-c2c(Cl)cccc2Cl)cc2cnc(Nc3ccc(N4CCOCC4)cc3)nc21" 814

Lookup "NC(N)=Nc1nc(CSCC/C(N)=N\S(N)(=O)=O)cs1" 11500

Lookup "Oc1ccc2ccccc2c1" 7170

Lookup "COc1cc(/C=C/C(=O)N2CCC=CC2=O)cc(OC)c1OC" 3400

Lookup "C=CCCCCCCCCC(=O)[O-].C=CCCCCCCCCC(=O)[O-].[Zn+2]" 11700

###

- testSummary: differential killing of epithelial or mesenchymal cells, primary screen, imaging, PC-3E GFP, TEM4-18 mCherry, co-culture (AID 1345086);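 also: normalised mesenchymal count divided by normalised epithelial count so high means epithelial killing; cells exposed to compound for 72 h before imaging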
- appliedConditions: imaging cell counts, at 1 µM, actives lie on both sides, counts scaled to control wells, 1 = unselective
The compounds listed here are annotated with their red/green cell ratio (normalised).
Give the figure by itself; no unit, no explanation.

[[record]]
compound = "COc1cc(C(=O)O)cc(OC)c1O"
propertymeasured = "red/green cell ratio (normalised)"
observedvalue = 1.08

[[record]]
compound = "CC(=O)OCC(=O)[C@@]12OC3(CCCC3)O[C@@H]1CC1C3CCC4=CC(=O)C=C[C@]4(C)[C@@]3(F)[C@@H](O)C[C@@]12C (stereo not given in full)"
propertymeasured = "red/green cell ratio (normalised)"
observedvalue = 1.04

[[record]]
compound = "CC(C)(c1ccc(O)cc1)c1ccc(O)cc1"
propertymeasured = "red/green cell ratio (normalised)"
observedvalue = 0.93

[[record]]
compound = "C#C[C@]1(O)CCC2C3CCC4=CC(=O)CC[C@@H]4C3CCC21CC (stereo not given in full)"
propertymeasured = "red/green cell ratio (normalised)"
observedvalue = 1.14

[[record]]
compound = "COc1cc(OC)c2c(O)c(C(C)=O)c(C)cc2c1"
propertymeasured = "red/green cell ratio (normalised)"
observedvalue = 1.01


Look up red/green cell ratio (normalised) for this compound: "O=C(N[C@@H](Cc1ccc(O)cc1)C(=O)O)OCc1ccccc1" 0.96

Lookup C[C@]12CCC3c4ccc(OS(=O)(=O)O)cc4CCC3C1CCC2=O (stereo not given in full) 0.91

Lookup "O=C(O)c1ccccc1Nc1cccc(OCc2ccc3ccccc3n2)c1" 0.86

Lookup NC(CSCSCC(N)C(=O)O)C(=O)O (stereo not given) 1.19

Lookup COc1cc(O)c2c(c1C)C(C(C)=O)COC2=O (stereo not given) 0.88

Lookup "O=C(O)c1cn(C2CC2)c2cc(N3CCN(c4ncncn4)CC3)c(F)cc2c1=O" 1.22

Lookup "COc1cc(OC)c(C(C)=O)c(O)c1C" 0.96

Lookup NC(=O)c1cc[n+](CC2=C(C(=O)O)N3C(=O)C(NC(=O)C(c4ccccc4)S(=O)(=O)[O-])C3SC2)cc1 (stereo not given) 0.99

Lookup C[C@]12CCC(=O)C=C1C=CC1C2CC[C@@]2(C)C1CC[C@@]21CCC(=O)O1 (stereo not given in full) 0.76

Lookup CC(C)(C)NC(=O)[C@H]1CCC2C3CCC4NC(=O)C=C[C@]4(C)C3CC[C@@]21C (stereo not given in full) 1.12

Lookup "C=C(C)n1cc(C(=O)O)c(=O)c2cc(F)c(N3CC[C@@H](CN)C3)c(OC)c21" 1.13

Lookup COc1cc([C@@H]2c3cc4c(cc3[C@H](O)C3COC(=O)[C@H]32)OCO4)cc(OC)c1OC (stereo not given in full) 1.4

Lookup CN(C(=O)OCc1ccccc1)C1C(O[C@@H]2OC(COS(=O)(=O)O)C(NC(=O)OCc3ccccc3)[C@H](OS(=O)(=O)O)[C@H]2OS(=O)(=O)O)OC2C[C@@H](NC(=O)OCc3ccccc3)[C@@H](OC3C(NC(=O)OCc4ccccc4)C[C@@H](NC(=O)OCc4ccccc4)[C@H](OS(=O)(=O)O)[C@H]3OS(=O)(=O)O)OC2C1OS(=O)(=O)O (stereo not given in full) 0.95

Lookup "CSc1nc2cc(Oc3cccc(Cl)c3Cl)c(Cl)cc2[nH]1" 0.82

Lookup "C[N+](C)(C)C[C@H](O)CC(=O)[O-]" 1.04

###

The compounds listed here are annotated with their growth inhibition.
- testSummary: antimalarial activity against Dd2 strain (AID 2302);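 also: 0% = DMSO untreated growth and 100% = chloroquine plus artemisinin killed control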
- appliedConditions: P. falciparum Dd2 in RBCs, LDH growth readout, 72 h; at 2 µM; stronger effect = higher value
# number only, unit % dropped from output

[[record]]
compound = "O=C(Nc1cccc(-c2nn3ncccc3c2-c2ccnc(Nc3cccc(-c4cnco4)c3)n2)c1)c1c(F)cccc1F"
observedvalue = 98


Look up growth inhibition for this compound: "COc1ccc(Br)cc1/C=C/C(=O)Nc1ccc(C2CCN(C)CC2)cc1" 61

Lookup "Cc1cccc2[nH]c(-c3ccc(-c4ccc(C(=O)NCCN5CCCC5)cc4)cc3)nc12" 77

###

- System: R275C
- testSummary: modulators of BK channel variants, profiling panel, selectivity assay, cell-based, U2OS BacMam, thallium flux, beta subunits (AID 1259406);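 also: initial slope of Thallos dye fluorescence rise after thallium is added; log ratio against the mean of 0.3% DMSO vehicle wells on the same plate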
- appliedConditions: at 30 µM
propertyMeasured: log fold change Tl+ flux
Give the figure by itself; no unit, no explanation.

[[record]]
compoundstring = "COC(=O)c1cncc(Br)c1"
observedvalue = -0.0441


Look up log fold change Tl+ flux for this compound: "NC(C=Cc1cc(C(F)(F)F)cc(C(F)(F)F)c1)=NOC(=O)c1c(F)cccc1F" -0.0159

Lookup "Cc1ncc(CSc2nc(C(C)(C)C)cs2)c(CO)c1O" -0.0209

Lookup "CCN(CC)CCOc1ccc(C(=C(Cl)c2ccccc2)c2ccccc2)cc1" 0.0156

Lookup "Cc1ccc(S(=O)(=O)NC(=O)NCc2csc3ccc(Cl)cc23)cc1" 0.0453

###

- Tested on: R275C/Slo1WT/beta2
- testSummary: modulators of BK channel variants, profiling panel, selectivity assay, cell-based, U2OS BacMam, thallium flux, beta subunits (AID 1259406);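 also: initial slope of Thallos dye fluorescence rise after thallium is added; log ratio against the mean of 0.3% DMSO vehicle wells on the same plate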
- appliedConditions: at 30 µM
The compounds listed here are annotated with their log fold change Tl+ flux.
Give the figure by itself; no unit, no explanation.

Previously resolved entries follow.
[[record]]
compoundstring = "CO[C@H]1C=CO[C@@]2(C)Oc3c(C)c(O)c4c(O)c(c5c(c4c3C2=O)NC2(CCN(CC(C)C)CC2)N=5)=NC(=O)C(C)=CC=C[C@H](C)[C@H](O)[C@@H](C)[C@@H](O)[C@@H](C)[C@H](OC(C)=O)[C@@H]1C"
observedvalue = 0.0234

[[record]]
compoundstring = "Cc1c(C(=O)NN2CCCCC2)nn(-c2ccc(Cl)cc2Cl)c1-c1ccc(I)cc1"
observedvalue = 0.0305

[[record]]
compoundstring = "COC(=O)c1ccc(S(=O)(=O)NNc2ncnc3cc(C(C)(C)C)sc23)n1C"
observedvalue = 0.0399


Would you kindly look at the next entry?
Look up log fold change Tl+ flux for this compound: "CCOC(=O)CN(C=NC#N)c1ccc(OC)cc1" 0.0303
